# credit: patent US20130310379A1

subject.of.test: EZH2 (Homo sapiens, UniProt Q15910)
Sequence (Q15910 whole entry): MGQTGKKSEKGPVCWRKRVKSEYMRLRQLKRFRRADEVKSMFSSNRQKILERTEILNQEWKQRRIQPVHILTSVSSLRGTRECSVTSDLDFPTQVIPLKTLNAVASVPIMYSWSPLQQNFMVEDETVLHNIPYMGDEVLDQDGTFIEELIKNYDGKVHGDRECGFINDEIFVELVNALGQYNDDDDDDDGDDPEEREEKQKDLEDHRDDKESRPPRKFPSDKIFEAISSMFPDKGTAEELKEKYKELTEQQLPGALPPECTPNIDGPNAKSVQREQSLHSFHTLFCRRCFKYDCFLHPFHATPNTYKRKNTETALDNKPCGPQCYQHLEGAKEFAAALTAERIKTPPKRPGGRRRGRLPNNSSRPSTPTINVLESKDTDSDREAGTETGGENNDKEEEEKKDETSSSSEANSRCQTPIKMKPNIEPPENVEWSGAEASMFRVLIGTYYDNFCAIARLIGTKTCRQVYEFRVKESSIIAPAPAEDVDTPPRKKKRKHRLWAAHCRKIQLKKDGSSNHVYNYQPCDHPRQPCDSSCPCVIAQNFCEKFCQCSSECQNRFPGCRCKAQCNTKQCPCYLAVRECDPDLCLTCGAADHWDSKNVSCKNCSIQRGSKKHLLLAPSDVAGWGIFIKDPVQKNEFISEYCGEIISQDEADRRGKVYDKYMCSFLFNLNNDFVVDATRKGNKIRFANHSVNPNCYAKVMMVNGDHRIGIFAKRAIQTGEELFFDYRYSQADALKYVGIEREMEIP
Sequence (O75530 whole entry partner): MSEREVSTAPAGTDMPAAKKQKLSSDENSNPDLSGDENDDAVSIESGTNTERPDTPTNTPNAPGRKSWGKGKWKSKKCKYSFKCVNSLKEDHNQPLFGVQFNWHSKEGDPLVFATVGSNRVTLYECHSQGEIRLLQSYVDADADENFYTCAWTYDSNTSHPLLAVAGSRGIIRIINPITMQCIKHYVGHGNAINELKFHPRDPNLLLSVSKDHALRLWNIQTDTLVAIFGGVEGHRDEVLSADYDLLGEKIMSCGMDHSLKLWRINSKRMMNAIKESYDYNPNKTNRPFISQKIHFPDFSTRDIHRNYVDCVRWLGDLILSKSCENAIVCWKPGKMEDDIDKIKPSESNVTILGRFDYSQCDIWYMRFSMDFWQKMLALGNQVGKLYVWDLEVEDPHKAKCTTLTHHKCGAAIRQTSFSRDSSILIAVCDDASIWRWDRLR
Sequence (Q15022 whole entry partner): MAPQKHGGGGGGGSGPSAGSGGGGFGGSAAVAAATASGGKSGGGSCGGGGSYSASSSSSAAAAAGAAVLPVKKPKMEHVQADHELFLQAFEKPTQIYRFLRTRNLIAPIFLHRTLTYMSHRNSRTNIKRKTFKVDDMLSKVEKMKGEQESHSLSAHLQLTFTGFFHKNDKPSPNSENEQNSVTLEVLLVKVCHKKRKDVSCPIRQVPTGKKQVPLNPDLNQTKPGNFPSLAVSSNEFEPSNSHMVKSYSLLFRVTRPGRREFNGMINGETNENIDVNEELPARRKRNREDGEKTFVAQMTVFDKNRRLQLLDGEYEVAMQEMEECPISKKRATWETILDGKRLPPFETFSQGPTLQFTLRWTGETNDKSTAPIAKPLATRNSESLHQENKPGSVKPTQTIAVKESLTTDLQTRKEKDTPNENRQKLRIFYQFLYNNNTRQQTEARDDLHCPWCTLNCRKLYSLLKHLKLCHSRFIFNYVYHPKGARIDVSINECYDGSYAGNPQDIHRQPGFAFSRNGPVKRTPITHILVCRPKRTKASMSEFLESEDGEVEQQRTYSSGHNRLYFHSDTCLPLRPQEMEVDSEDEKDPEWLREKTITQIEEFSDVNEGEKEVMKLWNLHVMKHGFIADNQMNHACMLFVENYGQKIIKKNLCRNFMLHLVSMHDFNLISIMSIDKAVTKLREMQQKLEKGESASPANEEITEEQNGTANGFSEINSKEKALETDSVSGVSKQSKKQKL
measurement.protocol: EZH2 assay: rPRC2 with biotinylated oligonucleosome substrates and 3H SAM, FlashPlate scintillation counting, IC50
Format: biochemical
applied.conditions: rPRC2, biotinylated oligonucleosome substrates, 3H SAM; read-out: EZH2 IC50
pIC50: −log10 of the molar value.
observed.property: pIC50

>  <compound>
CNCc1cccc(Oc2ccc(C(=O)NC3CC(C)(C)NC(C)(C)C3)cc2)c1 [Compound I-236]

>  <reading>
4.70 to 5.30

$$$$
>  <compound>
CC1(C)CC(NC(=O)c2ccc(Oc3ccccc3OCc3ccccc3)cc2)CC(C)(C)N1 [Compound I-152]

>  <reading>
> 5.30

$$$$
>  <compound>
CC1(C)CC(NC(=O)c2ccc(Oc3ncccc3C#N)c(Cl)c2)CC(C)(C)N1 [Compound I-249]

>  <reading>
4.70 to 5.30

$$$$
>  <compound>
Cc1ccc(CO)cc1Oc1ccc(C(=O)NC2CC(C)(C)NC(C)(C)C2)cc1 [Compound I-43]

>  <reading>
4.10 to 4.70

$$$$
>  <compound>
CC1(C)CC(NC(=O)c2ccc(Oc3ccccc3C#N)c(C3CCCC3)c2)CC(C)(C)N1 [Compound I-238]

>  <reading>
4.70 to 5.30

$$$$
>  <compound>
CC1(C)CC(NC(=O)c2ccc(OCCc3ccccc3)cc2)CC(C)(C)N1 [Compound I-84]

>  <reading>
< 4.10

$$$$
>  <compound>
CC1(C)CC(NC(=O)c2ccc(COc3cccc4cccnc34)cc2)CC(C)(C)N1 [Compound I-189]

>  <reading>
4.10 to 4.70

$$$$
>  <compound>
CNCc1ccccc1Oc1ccc(C(=O)NC2CC(C)(C)NC(C)(C)C2)cc1 [Compound I-274]

>  <reading>
< 4.10

$$$$
>  <compound>
COc1ncccc1-c1cccc(OCc2ccc(C(=O)NC3CC(C)(C)NC(C)(C)C3)cc2)c1 [Compound I-55]

>  <reading>
4.10 to 4.70

$$$$
>  <compound>
CC1(C)CC(NC(=O)c2ccc(Oc3ccncc3)c(Br)c2)CC(C)(C)N1 [Compound I-318]

>  <reading>
4.10 to 4.70

$$$$
>  <compound>
CC1(C)CC(NC(=O)c2ccc(Oc3ccccc3C#N)c(Cl)c2)CC(C)(C)N1CC(=O)O [Compound I-424]

>  <reading>
< 4.10

$$$$
>  <compound>
CC1(C)CC(NC(=O)c2ccc(C#Cc3ccccc3)cc2)CC(C)(C)N1 [Compound I-173]

>  <reading>
4.70 to 5.30

$$$$
>  <compound>
CC1(C)CC(NC(=O)c2ccc(Oc3ccccc3C#N)c(Cl)c2)C(F)C(C)(C)N1 (centres unmarked) [Compound I-434]

>  <reading>
4.10 to 4.70

$$$$
>  <compound>
Cc1cncc(-c2cccc(Oc3ccc(C(=O)NC4CC(C)(C)NC(C)(C)C4)cc3Cl)c2C#N)c1 [Compound I-360]

>  <reading>
> 5.30

$$$$
>  <compound>
CC1(C)CC(NC(=O)c2ccc(Oc3ccccc3)c(Cl)c2)CC(C)(C)N1 [Compound I-49]

>  <reading>
4.10 to 4.70

$$$$
>  <compound>
N#CCCN1CCC(NC(=O)c2ccc(Oc3cccc(-c4ccnnc4)c3C#N)c(Cl)c2)CC1 [Compound I-485]

>  <reading>
4.10 to 4.70

$$$$
>  <compound>
CC1(C)CC(NC(=O)c2ccc(COc3cccc(-c4cnc5[nH]ccc5c4)c3)cc2)CC(C)(C)N1 [Compound I-5]

>  <reading>
> 5.30

$$$$
>  <compound>
Cc1ccc(OCc2ccc(C(=O)NC3CC(C)(C)NC(C)(C)C3)cc2)c(C)c1 [Compound I-42]

>  <reading>
4.10 to 4.70

$$$$
>  <compound>
CC(=O)N1CCC(c2cccc(Oc3ccc(C(=O)NC4CC(C)(C)NC(C)(C)C4)cc3Cl)c2C#N)CC1 [Compound I-537]

>  <reading>
> 5.30

$$$$
>  <compound>
CC1(C)CC(NC(=O)c2ccc(Oc3ccccc3-c3ccccc3)c(Cl)c2)CC(C)(C)N1 [Compound I-206]

>  <reading>
> 5.30

$$$$
>  <compound>
CC1(C)CC(NC(=O)c2ccc(C(=O)c3ccccc3)cc2)CC(C)(C)N1 [Compound I-431]

>  <reading>
4.10 to 4.70

$$$$
>  <compound>
CC1(C)CC(NC(=O)c2ccc(Oc3ccccc3C#N)c(Cl)c2)CC(C)(C)N1CCCO [Compound I-489]

>  <reading>
> 5.30

$$$$
>  <compound>
CNCc1cccc(Oc2ccc(C(=O)NC3CC(C)(C)NC(C)(C)C3)cc2Cl)c1C#N [Compound I-381]

>  <reading>
> 5.30

$$$$
>  <compound>
CNc1cccc(OCc2ccc(C(=O)NC3CC(C)(C)NC(C)(C)C3)cc2)n1 [Compound I-121]

>  <reading>
< 4.10

$$$$
>  <compound>
COc1ccc(-c2cccc(OCc3ccc(C(=O)NC4CC(C)(C)NC(C)(C)C4)cc3)c2)cn1 [Compound I-41]

>  <reading>
4.10 to 4.70

$$$$
>  <compound>
CC1(C)CC(NC(=O)c2ccc(COc3cccc(-c4ccc(F)nc4)c3)cc2)CC(C)(C)N1 [Compound I-19]

>  <reading>
4.70 to 5.30

$$$$
>  <compound>
CC1(C)CC(NC(=O)c2ccc(Oc3cccc(CCC(N)=O)c3C#N)c(Cl)c2)CC(C)(C)N1 [Compound I-501]

>  <reading>
> 5.30

$$$$
>  <compound>
CC1(C)CC(NC(=O)c2ccc(Oc3ccc4[nH]ccc4c3)cc2)CC(C)(C)N1 [Compound I-82]

>  <reading>
< 4.10

$$$$
>  <compound>
CC1(C)CC(NC(=O)c2ccc(-n3ncc4ccccc43)c(Cl)c2)CC(C)(C)N1 [Compound I-327]

>  <reading>
> 5.30

$$$$
>  <compound>
CC1(C)CC(NC(=O)c2ccc(COc3cccc4c3CCCC4)cc2)CC(C)(C)N1 [Compound I-188]

>  <reading>
> 5.30

$$$$
>  <compound>
Cc1cccc(Oc2ccc(C(=O)NC3CC(C)(C)NC(C)(C)C3)cc2Cl)c1C#N [Compound I-309]

>  <reading>
> 5.30

$$$$
>  <compound>
CC1(C)CC(NC(=O)c2ccc(Oc3ccccc3C#N)cc2F)CC(C)(C)N1 [Compound I-245]

>  <reading>
4.70 to 5.30

$$$$
